Value source: PubChem BioAssay (NCI)

What growth was measured for each of the following?
# System: 786-0 renal
# PROCEDURE_SUMMARY: NCI-60 one-dose screen, 48 h (100 = growth as untreated, 0 = no growth, -100 = all killed)
# CONDITION_INFO: 10 µM
About 83,000 compounds went through this panel and 20% of them were active in at least one assay; those are over-represented in the sample as a whole.
Respond numerically; units are % and should not be typed.

Value of growth reported for the compound COc1cc(Nc2ncnc(Nc3ccc4c(n3)NC(=O)C(C)(C)O4)n2)cc(OC)c1OC is 8.87

Value of growth reported for the compound O=[N+]([O-])c1cccc(N=Cc2ccc3c(c2)OCO3)c1 is 106

Value of growth reported for the compound CN(C)C=Nc1cc(Cl)ccc1Cl is 111

Value of growth reported for the compound Nc1ncnc2[nH]c(=O)[nH]c12 is 102

Value of growth reported for the compound COc1ccc2c(c1)O/C(=C\c1ncc([N+](=O)[O-])n1C)C2=O is -13.4

Value of growth reported for the compound O=C(NN1C(=O)CSC1c1ccc(Cl)cc1)c1cccnc1 (stereo not given) is 92

Value of growth reported for the compound CCN(CCCCCCCCCCN1CC(=O)N(CCCCCCCCCCN(CC)Cc2ccccc2OC)CC1=O)Cc1ccccc1OC is -72.5

Value of growth reported for the compound COc1cc(-c2cc(/C=C/C(=O)c3ccc(N)cc3)[nH]n2)cc(OC)c1OC is -28.9

Value of growth reported for the compound CCN(CC)Cc1cc(Nc2ccnc3cc(Cl)ccc23)ccc1OC is 97.4

Value of growth reported for the compound CN(C)Cc1cn(-c2ncc(-c3ccc(C(F)(F)F)cc3)c(NC3CCCCCC3)n2)nn1 is 90.4

Value of growth reported for the compound COc1ccc(Oc2nc(NC3CCCC3)nc(Sc3ccc(OC)cc3)n2)cc1 is 79.9

Value of growth reported for the compound CCN1CCC2(CC1)OC(c1ccccc1)C(c1ccccc1)O2 (stereo not given) is 92.7

Value of growth reported for the compound Cc1ccc(Nc2nnc(-c3cc(-c4ccncc4)n(-c4ccccc4)n3)s2)cc1 is 41.9

Value of growth reported for the compound CN(C)CCN=c1nc2c(c(N)n1-c1ccccc1)c(=S)n(-c1ccccc1)c(=S)n2-c1ccccc1 is -83.5

Value of growth reported for the compound COc1ccc2c(c1)O/C(=C\c1ccc([N+](=O)[O-])s1)C2=O is 69

Value of growth reported for the compound CC(C)(C)NC/C(=C\c1ccccc1)C(=O)c1ccccc1 is -41.6

Value of growth reported for the compound COc1cc(-c2cc(-c3cc4c([nH]c5ccccc54)c(-c4cc(OC)c(OC)c(OC)c4)n3)cc(-c3ccccc3)n2)cc(OC)c1OC is 79.6

Value of growth reported for the compound CC(=O)c1cc(Br)ccc1O is 104

Value of growth reported for the compound COc1ccc(-c2cc(-c3ccc(N(C)C)cc3)c(C#N)c(N3CCCC3)n2)cc1 is 95.6

Value of growth reported for the compound CCCCC(CCCCCC(CCCC)NCc1ccc2c(c1)OCO2)NCc1ccc2c(c1)OCO2 (stereo not given) is -100

Value of growth reported for the compound CCOC(=O)N1C/C(=C/c2ccc(Cl)cc2)C(=O)/C(=C/c2ccc(Cl)cc2)C1 is 65.6

Value of growth reported for the compound CCOC(=O)c1ccoc1 is 99.1

Value of growth reported for the compound Clc1ccc(/C=C2\CCCC3=C2N=C2SC=NN2C3c2ccc(Cl)cc2)cc1 (stereo not given) is 103

Value of growth reported for the compound COc1ccc2c(c1)C(=O)c1c-2c(OCCN2CCCCC2)nc2ccc(OC)cc12 is 18

Value of growth reported for the compound Cc1cc(=O)[nH]c(N/N=C/c2ccccc2O)n1 is 93.4

Value of growth reported for the compound O=C(C[n+]1ccccc1)c1ccc2ccccc2c1 is 87.6

Value of growth reported for the compound CC(=O)CSC(C)=O is 102

Value of growth reported for the compound COc1ccc(-c2nc(-c3nc4cc(Cl)c(F)cc4[nH]3)c3ccccn23)cc1 is 79.9

Value of growth reported for the compound CCN1CCCC1CNC(=O)c1ncc(-c2ccc(C(F)(F)F)cc2)c(NC2CCCCCC2)n1 (stereo not given) is 84.5

Value of growth reported for the compound c1ccc2c(-c3nc(N4CCOCC4)c4c5c(sc4n3)CCCCCC5)cccc2c1 is 103
